phosphorylation enrichment listing for selected sequences.
# systemTested: Jak2 (UniProt O60674)
# Sequence (O60674 whole entry, looked up): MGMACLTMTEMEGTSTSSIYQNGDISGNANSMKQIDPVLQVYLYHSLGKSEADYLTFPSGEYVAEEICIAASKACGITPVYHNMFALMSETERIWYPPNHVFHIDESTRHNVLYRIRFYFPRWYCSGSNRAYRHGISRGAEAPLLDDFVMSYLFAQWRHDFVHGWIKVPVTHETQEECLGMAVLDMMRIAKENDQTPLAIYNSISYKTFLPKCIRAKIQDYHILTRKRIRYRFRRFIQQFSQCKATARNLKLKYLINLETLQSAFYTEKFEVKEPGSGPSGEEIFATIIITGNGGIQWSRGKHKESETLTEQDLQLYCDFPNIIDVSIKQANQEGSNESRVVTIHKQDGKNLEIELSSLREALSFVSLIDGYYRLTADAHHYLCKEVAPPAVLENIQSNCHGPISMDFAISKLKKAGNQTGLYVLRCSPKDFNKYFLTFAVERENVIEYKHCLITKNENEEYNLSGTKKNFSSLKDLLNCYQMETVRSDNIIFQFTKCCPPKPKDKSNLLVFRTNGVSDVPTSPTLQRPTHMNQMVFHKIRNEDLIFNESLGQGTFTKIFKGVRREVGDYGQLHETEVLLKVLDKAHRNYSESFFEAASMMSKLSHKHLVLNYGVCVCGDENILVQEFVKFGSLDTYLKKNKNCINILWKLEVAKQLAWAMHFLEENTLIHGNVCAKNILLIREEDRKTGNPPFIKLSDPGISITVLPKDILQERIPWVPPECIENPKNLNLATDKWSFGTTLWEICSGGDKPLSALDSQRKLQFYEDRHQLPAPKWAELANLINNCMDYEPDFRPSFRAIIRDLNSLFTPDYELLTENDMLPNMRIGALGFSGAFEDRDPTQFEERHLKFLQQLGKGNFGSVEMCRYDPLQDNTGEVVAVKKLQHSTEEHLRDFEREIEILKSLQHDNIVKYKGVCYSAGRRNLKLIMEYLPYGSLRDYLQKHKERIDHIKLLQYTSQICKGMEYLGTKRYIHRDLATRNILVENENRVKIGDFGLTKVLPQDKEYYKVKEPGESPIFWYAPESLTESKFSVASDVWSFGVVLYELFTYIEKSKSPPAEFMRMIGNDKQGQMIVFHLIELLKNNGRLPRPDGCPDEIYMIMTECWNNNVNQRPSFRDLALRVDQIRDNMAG
# experimentDescription: phosphorylation enrichment, bacterial display (enrichment ratio); higher = better substrate or ligand; peptides without Tyr show the background;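 also: 11-residue human phosphosite peptides and single-mutation variants displayed on the E. coli surface, counted by deep sequencing, each peptide's frequency after selection divided by its frequency in the unselected input library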;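 also: frequency after pTyr selection over input frequency; kinase dosed for 20-30% of maximal phosphorylation in three min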
measurementType: phosphorylation enrichment

[[record]]
chain = "NIQKKYFRAIL [CHD7_Y1217_YF]"
measurementtype = "phosphorylation enrichment"
valueobserved = 0.718

[[record]]
chain = "KNNDGYIDYAE [MCFD2_Y135]"
measurementtype = "phosphorylation enrichment"
valueobserved = 1.01

[[record]]
chain = "THLAPYSDELR [APOA1_Y190]"
measurementtype = "phosphorylation enrichment"
valueobserved = 0.688

[[record]]
chain = "MNPPPYSQFLS [FGF23_Y154]"
measurementtype = "phosphorylation enrichment"
valueobserved = 0.687

[[record]]
chain = "MPIPMYDASQA [CARMIL1_Y637]"
measurementtype = "phosphorylation enrichment"
valueobserved = 0.717

[[record]]
chain = "VKANTYEKFWP [GATM_Y100_YF]"
measurementtype = "phosphorylation enrichment"
valueobserved = 0.717

[[record]]
chain = "GSSKIYFLHPD [TLR5_Y108]"
measurementtype = "phosphorylation enrichment"
valueobserved = 0.714

